# System: CREB-binding protein/Histone acetyltransferase p300/Cellular tumor antigen p53 (Homo sapiens), P04637+Q09472+Q92793 [Y220C]
# assay.overview: AceTAC activity at FLAG-tagged p53Y220C mutant (unknown origin) expressed in human NCI-H1299 cells expressing p300/CBP assessed as increase in p53 acetylation at lysine 382 residue at 10 uM incubated for 24 hrs by western blot analysis relative to control
# Assay type: cell-based
I'd appreciate it if you could supply Activity values for the items below.
Answers are plain numbers, in %.

Incoming: Look at this molecule and give its reported Activity. CCn1c2ccc(CNCCCCC(=O)NCCOc3ccc(CCc4nc5cc(-c6c(C)noc6C)ccc5n4CCN4CCOCC4)cc3F)cc2c2ccc(-c3cc(C)cs3)cc21
Outgoing: 202

Incoming: Further, for CCn1c2ccc(CNCCCCCC(=O)NCCOc3ccc(CCc4nc5cc(-c6c(C)noc6C)ccc5n4CCN4CCOCC4)cc3F)cc2c2ccc(-c3cc(C)cs3)cc21 ?
Outgoing: 176

Incoming: Next entry: CCn1c2ccc(CNCCOCCOCCOCCOCCOCCC(=O)NCCOc3ccc(CCc4nc5cc(-c6c(C)noc6C)ccc5n4CCN4CCOCC4)cc3F)cc2c2ccc(-c3cc(C)cs3)cc21
Outgoing: 184

Incoming: And for CCn1c2ccc(CNCCCCCCCC(=O)NCCOc3ccc(CCc4nc5cc(-c6c(C)noc6C)ccc5n4CCN4CCOCC4)cc3F)cc2c2ccc(-c3cc(C)cs3)cc21 ?
Outgoing: 196

Incoming: Ok, now CCn1c2ccc(CNCCOCCC(=O)NCCOc3ccc(CCc4nc5cc(-c6c(C)noc6C)ccc5n4CCN4CCOCC4)cc3F)cc2c2ccc(-c3cc(C)cs3)cc21
Outgoing: 186

Incoming: And then CCn1c2ccc(CNCCOCCOCCOCCOCCC(=O)NCCOc3ccc(CCc4nc5cc(-c6c(C)noc6C)ccc5n4CCN4CCOCC4)cc3F)cc2c2ccc(-c3cc(C)cs3)cc21 , what is it?
Outgoing: 198

Next:
Incoming: So what does the record say about Activity for CCn1c2ccc(CNCCCC(=O)NCCOc3ccc(CCc4nc5cc(-c6c(C)noc6C)ccc5n4CCN4CCOCC4)cc3F)cc2c2ccc(-c3cc(C)cs3)cc21 ?
Outgoing: 195
